As shown below, each of these molecules has a reported z-score value.
- Tested Target: NADPH oxidase 5 (Homo sapiens)
- Test Name: NOX5-dependent H2O2 signal modulators, primary screen, NOX inhibitor project, cell-based, HEK293-NOX5, Amplex Red fluorescence (AID 1161)
- Settings: HEK293-NOX5, ionomycin, 45 min, higher = more signal
Keep the answer to the number alone.

Use the examples below as a reference point.
CCN(CC)c1ccc(N2CC=CC34O[C@@H]5/C=C\CCC(C)OC(=O)C5[C@H]3C(=O)N(C(CO)C(C)C)[C@@H]4C2=O)cc1 (stereo not given in full) ... 0.855
O=C1c2ccccc2[C@@]2(Cc3ccccc3N(CCN3CCOCC3)C2=O)[C@H](c2ccc(CO)cc2)N1Cc1ccccc1 ... -0.606
CCOC(=O)C[C@H]1[C@H](OC(=O)Cc2ccc3c(c2)OCO3)[C@@H](NC(=O)c2ccc3ccccc3c2)c2cc(OCCCO)ccc2N1C(=O)c1ccccc1 ... -2.56
[N-]=[N+]=NCc1ccccc1[C@@H]1OC(c2ccc(OCCCO)cc2)=N[C@]1(Cc1ccccc1N=[N+]=[N-])C(=O)N1CCOCC1 ... 1.4
C=CCC(OC(C)=O)[C@@H]1[C@@H](N(Cc2ccc(-c3cccc(C(F)(F)F)c3)o2)C(=O)Cc2ccc(F)cc2)c2cc(OCCCO)ccc2N1C(=O)Cc1ccc(OC)cc1 (stereo not given in full) ... -0.0149

Query: Quick one: z-score of CC(C)(C)OC(=O)CC[C@@]12N=C(c3ccc(OCCCO)cc3)O[C@@H]1c1ccccc1N(CCS(=O)(=O)c1ccccc1)C2=O ?
Reply: -2.14

Query: Consider the molecule [N-]=[N+]=NCc1ccccc1C[C@]1(C(=O)O)N=C(c2ccc(OCCCO)cc2)O[C@H]1c1ccccc1N=[N+]=[N-] and give its measured z-score.
Reply: -1.92

###

Reported z-score values are given for each entry in this list.
- Test Name: FRG1 promoter luciferase signal modulators, primary screen, FRG1 inhibition for FSHD, cell-based, C2C12 myotubes, firefly/Renilla luciferase, luminescence (AID 1084)
- Settings: higher = more signal, called active from +8 up or from −8 down
Respond numerically, and do not add a unit to the figure.

Known z-score results, listed for orientation:
CC1CC/C=C\[C@H]2OC34C=CCN(C(C)(C)C)C(=O)[C@H]3N(CCCCCCO)C(=O)[C@@H]4C2C(=O)O1 (some centres not stated) ... -1.09
CC[C@@H]1C=C(C(=O)O)[C@H](c2ccco2)N1S(=O)(=O)c1ccc(C)cc1 ... 0.0623
[N-]=[N+]=NCc1ccccc1[C@@H]1OC(c2ccc(OCCCO)cc2)=N[C@]1(Cc1ccccc1N=[N+]=[N-])C(=O)N1CCOCC1 ... -0.825
CN(C)C(=O)[C@]1(Cc2ccccc2CN=[N+]=[N-])N=C(c2ccc(OCCCO)cc2)O[C@@H]1c1ccccc1CN=[N+]=[N-] ... -1.45
CC(=O)NCCCC[C@@H]1NC(=O)[C@@H]2C[C@H](C(=O)NCCCCN(C)C)[C@H](c3cccc(OCCO)c3)N2C1=O ... 3.26

Query: Need z-score, item [N-]=[N+]=NCc1ccccc1C[C@]1(C(=O)O)N=C(c2ccc(OCCCO)cc2)O[C@H]1c1ccccc1N=[N+]=[N-]
Reply: -1.47

###

- Test Name: inhibitors of hydroxyurea-induced Chk1 phosphorylation, primary screen, imaging, HeLa, phospho-Chk1 nuclear intensity (AID 1187); also: test concentration not given here
- Settings: hydroxyurea-induced phospho-Chk1 immunofluorescence imaging, higher = more signal
Label scheme for z-score: lower than 0.2 is 0 (no), 0.2 and above is 1 (yes).

O=C1OCCC/C=C\[C@H]2OC34C=CCN(Cn5nnc6ccccc65)C(=O)[C@H]3N(CCCCCCO)C(=O)[C@@H]4C12 (stereo partly specified) ... 1 (yes)
C=CCOC(=O)[C@@H]1[C@H]2C(=O)O[C@H](c3ccccc3)[C@H](c3ccccc3)N2[C@H](c2ccc(OCCOC(=O)[C@@H]3C[C@@H]4C(=O)N[C@@H](CCCC[N+](C)(C)C)C(=O)N4[C@@H]3c3cccc(OCCO)c3)cc2)[C@@]12C(=O)Nc1ccc(I)cc12 ... 0 (no)
C=CCN1C(=O)[C@@]2(O[C@@H](CCO)[C@H]([Si](C)(C)c3ccc(OC)cc3)[C@H]2C)c2cc(NC(=O)c3ccc(OC)cc3)ccc21 ... 1 (yes)
C=C(COC)/C(=C/C[C@@H](OC(C)=O)c1ccc(OCCO)cc1)c1cc(C(=O)OC)ccc1OC ... 0 (no)
[N-]=[N+]=Nc1ccccc1C[C@]1(C(N)=O)N=C(c2ccc(OCCCO)cc2)O[C@H]1c1ccccc1 ... 0 (no)

Next:
Query: Record CCCCN1CC=CC23O[C@@H]4/C=C\CCC(C)OC(=O)C4[C@H]2C(=O)N(CCCCCO)[C@@H]3C1=O (stereo partly specified) ; criterion: z-score no lower than 0.2. Met?
Reply: 0 (no)
